Where these numbers come from: paper PMC3477848

# experimental.system: T1, Dpo4 (SsoDpo4, Y-family DNA polymerase) (Sulfolobus solfataricus, UniProt Q97W02 1-352)
# T1 sequence: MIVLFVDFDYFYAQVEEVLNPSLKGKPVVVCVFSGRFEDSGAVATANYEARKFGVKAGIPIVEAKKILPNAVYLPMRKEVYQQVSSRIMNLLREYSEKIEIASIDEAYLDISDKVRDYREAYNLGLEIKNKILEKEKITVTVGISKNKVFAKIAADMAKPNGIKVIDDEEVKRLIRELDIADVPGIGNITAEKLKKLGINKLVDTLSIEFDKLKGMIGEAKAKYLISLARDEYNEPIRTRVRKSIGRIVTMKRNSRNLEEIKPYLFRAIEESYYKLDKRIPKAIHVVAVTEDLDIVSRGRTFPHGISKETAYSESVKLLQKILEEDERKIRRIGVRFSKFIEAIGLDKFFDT
# method.notes: fluorescence anisotropy
assay.readout: pKd
Would you please state pKd, meaning minus log10 of the concentration in mol/L, as a bare number?

Input TTTTTTTTTTCCCGGGCCGGCGTTTCGCCGGCCCGGG (structured_DNA) [37-nt hairpin primer-template, 5'-Cy3] . Output pKd: 6.75
